B1: CD2-associated protein, residues 271 to 331; numbered along this chain, Q9Y5K6 (parent)
chain: KEYCRTLFAYEGTNEDELTFKEGEIIHLISKETGEAGWWRGELNGKEGVFPDNFAVQINEL

Variants of: B1
Assay: abundance fitness (aPCA) (normalised: wild type 0, dead -1); higher = more abundant; growth selection in yeast, the domain comes from the species named
Conditions: Homo sapiens
property: abundance fitness
Kindly provide the number alone.

E42F
-0.569
F8V
0.004
N59E
-0.05
Y10K
-0.167
T6E
-0.698

Kindly note the recorded abundance fitness for G37F , which is -0.492

Briefly, abundance fitness measured for L61H : 0.009

Record E32W , field abundance fitness: -0.116

# variant R40L ; its abundance fitness = -0.009

Lab note: measured abundance fitness of A36F was -0.158

// provenance: the Human Domainome abundance scans (Beltran et al. 2025)
